Cited source: patent USRE42462E1

Target: ETB receptors (Cavia porcellus, UniProt H0VTF3)
Sequence (H0VTF3 27-415): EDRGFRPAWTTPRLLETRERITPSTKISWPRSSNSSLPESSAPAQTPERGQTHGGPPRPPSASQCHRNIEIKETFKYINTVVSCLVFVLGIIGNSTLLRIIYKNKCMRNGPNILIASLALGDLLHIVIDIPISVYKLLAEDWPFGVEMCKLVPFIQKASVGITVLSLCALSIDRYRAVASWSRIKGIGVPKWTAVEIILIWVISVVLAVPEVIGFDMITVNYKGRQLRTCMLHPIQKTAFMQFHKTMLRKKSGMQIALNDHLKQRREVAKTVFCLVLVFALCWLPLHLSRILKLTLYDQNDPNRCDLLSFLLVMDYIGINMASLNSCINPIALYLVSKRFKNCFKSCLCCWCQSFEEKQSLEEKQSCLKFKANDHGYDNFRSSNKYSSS
pKi: −log10 of the molar value.
Each entry gets 0.0 if its pKi stays under 6, and 1.0 if its pKi is 6 or above.

COMPOUND	ASSIGNED LABEL
COc1cc(OC)nc(OC(C(=O)O)C(OCC2CC2)(c2ccccc2)c2ccccc2)n1 (stereo not drawn)	0.0
COc1cc(OC)nc(OC(C(=O)O)C(Oc2ccccc2)(c2ccccc2)c2ccccc2)n1 (stereo not drawn)	1.0
COc1cc(OC)nc(OC(C(=O)O)C2(OC)c3ccccc3-c3ccccc32)n1 (stereo not drawn)	0.0
COc1nc(OC(C(=O)O)C(OC)(c2ccccc2)c2ccccc2)nc2c1ccn2C (stereo not drawn)	0.0
CCOC(c1ccccc1)(c1ccccc1)C(Oc1nc(OC)cc(OC)n1)C(=O)O (stereo not drawn)	0.0
CCCOC(c1ccccc1)(c1ccccc1)C(Oc1nc(OC)cc(OC)n1)C(=O)O (stereo not drawn)	0.0
COc1nc(OC(C(=O)O)C(OC)(c2ccccc2)c2ccccc2)nc2c1CCC2 (stereo not drawn)	1.0

* * *

Biological target: Cloned human ETA receptor (Homo sapiens)
Sequence (P25101 21-427): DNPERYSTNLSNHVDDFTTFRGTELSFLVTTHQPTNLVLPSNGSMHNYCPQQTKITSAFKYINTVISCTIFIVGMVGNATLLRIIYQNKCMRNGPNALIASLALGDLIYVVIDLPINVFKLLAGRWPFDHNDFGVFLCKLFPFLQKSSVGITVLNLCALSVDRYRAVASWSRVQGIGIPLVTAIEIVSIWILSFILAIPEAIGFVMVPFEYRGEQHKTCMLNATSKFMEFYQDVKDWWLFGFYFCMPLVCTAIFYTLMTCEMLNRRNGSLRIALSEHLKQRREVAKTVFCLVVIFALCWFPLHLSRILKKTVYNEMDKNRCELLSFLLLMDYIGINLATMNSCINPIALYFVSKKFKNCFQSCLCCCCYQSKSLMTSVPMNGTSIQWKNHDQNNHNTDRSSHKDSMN
pKi: −log10 of the molar value.
Listing of entries alongside the reported pKi.

MOLECULE	pKi
COc1nc(OC(C(=O)O)C(OC)(c2ccccc2)c2ccccc2)nc2c1CCC2 (centres unmarked) [Compound I-96]	9.22
COc1cc(OC)nc(OC(C(=O)O)C(Oc2ccccc2)(c2ccccc2)c2ccccc2)n1 (centres unmarked) [Compound I-29]	7.07
COc1cc(OC)nc(OC(C(=O)O)C2(OC)c3ccccc3CCc3ccccc32)n1 (centres unmarked) [II-3]	6.97
COc1cc(C)nc(OC(C(=O)O)C(OC)(c2ccccc2)c2ccccc2)n1 (centres unmarked) [Compound I-103]	9.40
COc1cc(OC)nc(OC(C(=O)O)C2(OC)c3ccccc3-c3ccccc32)n1 (centres unmarked) [II-1]	7.55
